assay target: T1, human GITR (human, UniProt Q9Y5U5 26-241)
T1 sequence: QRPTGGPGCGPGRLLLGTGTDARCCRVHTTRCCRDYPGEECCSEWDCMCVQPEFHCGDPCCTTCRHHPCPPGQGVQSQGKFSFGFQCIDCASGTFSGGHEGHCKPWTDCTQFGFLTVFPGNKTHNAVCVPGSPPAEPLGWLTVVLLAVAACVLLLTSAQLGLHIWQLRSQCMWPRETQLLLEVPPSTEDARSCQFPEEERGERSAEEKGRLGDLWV
protocol description: cell-based or functional assay
In this section, each of the binders is paired with its reported Proliferation EC50.
Record the value in µg/mL, omitting the unit from your answer.

See these solved cases before continuing.
binder | value unit | Proliferation EC50
7A10v5 (antibody, human IgG1, kappa, V domains shown, Engineered variant; also called Ab43; SS-16941) VH: QVQLVESGGGVVQPGRSLRLSCAASGFTFSSYGMHWVRQAPGKGLEWMAVIWYVGSNKYYAESVKGRFTISRDNSKNTLYLQMNSLRAEDTAVYYCARGGELGRDYYSGMDVWGQGTTVTVSS VL: DIQMTQSPSSLSASVGDRVTITCRASQGIRNDLGWYQQKPGKAPKLLIYAASSLQSGVPSRFSGSGSGTEFTLTISSLQPEDFATYYCQQHNSYPWTFGQGTKVEIKR | µg/mL | 0.02
5H7v3 (antibody, human IgG1, kappa, V domains shown, Engineered variant; also called Ab27; SS-16913) VH: QVQLQESGPGLVKPSETLSLTCTVSGGSISSGGYFWSWIRQPPGKGLEWIGYIYYSGTTYYNPSLKSRVTISIDTSKNQFSLKLSSVTAADTAVYYCARDLFYYDSSGPRGFEPWGQGTLVTVSS VL: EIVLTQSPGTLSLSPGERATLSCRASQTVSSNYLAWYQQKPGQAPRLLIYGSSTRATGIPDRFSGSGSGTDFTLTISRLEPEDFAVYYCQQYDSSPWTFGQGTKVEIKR | µg/mL | 0.015

Now for a further binder.
Qu. Tell us which Proliferation EC50 value is on record for 9H6v6 (antibody, human IgG1, kappa, V domains shown, Engineered variant; also called Ab49; SS-16947) VH: QVQLVESGGGVVQPGRSLRLSCVASGFTFSSYGMHWIRQAPGKGLEWVAVIWYEGSNKYYADTVKGRFTISRDNSKNTLYLQMNSLRAEDTAVYYCARGGRLGKDYYSGMDVWGQGTTVTVSS VL: DIQMTQSPSSLSASVGDRVTITCRASQGIRNDLGWYQQKPGKAPKLLIYATSSLQSGVPSRFSGSGSGTEFTLTISSLQPEDFATYYCLQHNTYPWTFGQGTKVEIKR
Ans. 0.011
